Reference source: patent US20250179200A1

koff values for the binders below.
Molecular target: T1, Human GHR-Fc-10x His (extracellular region of human growth hormone receptor fused to human Fc) (human, UniProt P10912 50-256)
T1 construct: Captured by its 10x His-tag on a Ni-NTA sensor chip for SPR; not shown: human Fc domain of vector pAB1200 with its linker; 10x His-tag replacing the AviTag
T1 sequence (looked up): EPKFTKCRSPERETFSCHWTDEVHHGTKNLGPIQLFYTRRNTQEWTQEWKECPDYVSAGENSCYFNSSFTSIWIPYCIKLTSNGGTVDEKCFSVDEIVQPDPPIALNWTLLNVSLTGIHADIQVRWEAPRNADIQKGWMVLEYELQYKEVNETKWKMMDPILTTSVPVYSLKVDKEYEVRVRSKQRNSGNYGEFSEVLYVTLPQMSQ
Assay: SPR, GHR-Fc-10xHis captured on Ni-NTA chip, Fab as analyte, 1:1 fit

[
  {
    "Binder": "GHR13 Fab (Fab, V domains shown, Fab) VH: EVQLVESGGGLVQPGGSLRLSCAASGFNVYYSSIHWVRQAPGKGLEWVAYIYPSSGSTSYADSVKGRFTISADTSKNTAYLQMNSLRAEDTAVYYCARSWQWYYPGWEQYGWYGMDYWGQGTLVTVSS VL: DIQMTQSPSSLSASVGDRVTITCRASQSVSSAVAWYQQKPGKAPKLLIYSASSLYSGVPSRFSGSRSGTDFTLTISSLQPEDFATYYCQQSGGSLVTFGQGTKVEIKR",
    "Units symbol": "s⁻¹",
    "koff": 0.00053
  },
  {
    "Binder": "GHR5 Fab (Fab, V domains shown, Fab) VH: EVQLVESGGGLVQPGGSLRLSCAASGFNVSYYSIHWVRQAPGKGLEWVAYISPSSGSTSYADSVKGRFTISADTSKNTAYLQMNSLRAEDTAVYYCARMYWQGGYSSYWQSYAMDYWGQGTLVTVSS VL: DIQMTQSPSSLSASVGDRVTITCRASQSVSSAVAWYQQKPGKAPKLLIYSASSLYSGVPSRFSGSRSGTDFTLTISSLQPEDFATYYCQQKSQYSLVTFGQGTKVEIKR",
    "Units symbol": "s⁻¹",
    "koff": 0.00211
  },
  {
    "Binder": "GHR9 Fab (Fab, V domains shown, Fab) VH: EVQLVESGGGLVQPGGSLRLSCAASGFNVSYSSIHWVRQAPGKGLEWVASISSSYGSTYYADSVKGRFTISADTSKNTAYLQMNSLRAEDTAVYYCARYYDYSWSTYKGIGTGAIDYWGQGTLVTVSS VL: DIQMTQSPSSLSASVGDRVTITCRASQSVSSAVAWYQQKPGKAPKLLIYSASSLYSGVPSRFSGSRSGTDFTLTISSLQPEDFATYYCQQYWYSYLITFGQGTKVEIKR",
    "Units symbol": "s⁻¹",
    "koff": 0.00012
  }
]
